# Target Desc: PAFR (Homo sapiens, UniProt P25105)
# Sequence (P25105 whole entry): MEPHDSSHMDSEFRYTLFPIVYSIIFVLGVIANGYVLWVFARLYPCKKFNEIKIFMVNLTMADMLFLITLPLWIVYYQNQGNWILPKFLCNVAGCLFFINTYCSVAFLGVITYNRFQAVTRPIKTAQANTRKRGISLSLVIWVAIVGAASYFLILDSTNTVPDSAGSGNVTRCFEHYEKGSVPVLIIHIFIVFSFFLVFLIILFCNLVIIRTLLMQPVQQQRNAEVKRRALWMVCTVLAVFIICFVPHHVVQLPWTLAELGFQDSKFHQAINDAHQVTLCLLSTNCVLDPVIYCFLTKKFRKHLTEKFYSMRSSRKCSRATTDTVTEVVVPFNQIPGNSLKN
Test Readout: IC50 (nM)

{"Compound": "O=S(=O)(N[C@H]1CCC[C@@H](n2cnnc2)C1)c1ccc(-c2ccc(OCC(F)(F)F)nc2)c(F)c1", "Test Readout": "IC50", "Result Number": 7}
{"Compound": "Cc1nncn1[C@H]1C[C@@H](NS(=O)(=O)c2ccc(-c3noc(C4CC4)n3)cc2)CC(F)(F)C1", "Test Readout": "IC50", "Result Number": 8.2}
{"Compound": "O=S(=O)(N[C@H]1CCC[C@@H](c2cccnc2)C1)c1ccc(-c2noc(C3CC3)n2)cc1 (relative stereo)", "Test Readout": "IC50", "Result Number": 1.9}
{"Compound": "O=S(=O)(N[C@H]1CCC[C@@H](n2cnnc2)C1)c1cc(-c2cccc(F)n2)cc(C(F)(F)F)c1", "Test Readout": "IC50", "Result Number": 4.6}
{"Compound": "O=S(=O)(N[C@H]1CCC[C@@H](n2cnnc2)C1)c1cc(-c2ccccc2)cc(C(F)(F)F)c1", "Test Readout": "IC50", "Result Number": 5.9}
{"Compound": "Cc1nncn1[C@H]1C[C@@H](NS(=O)(=O)c2cc(-c3ccn[nH]3)cc(C(F)(F)F)c2)CC(F)(F)C1", "Test Readout": "IC50", "Result Number": 18}
